Measured values drawn from patent US20250135039A1 for this set.

Each item that follows carries a reported MGMT activity (% of WT) DMSO.
# Test system: U251 human glioblastoma cell line
# procedure.details: in vitro FM-HCR assay of MGMT activity (mPlum O^6MeG reporter plasmid)
# Format: cell-based
# condition.description: DMSO condition; relative to wild-type MGMT in same condition

G156I: MGMT polypeptide with mutation G156I (protein) MDKDCEMKRTTLDSPLGKLELSGCEQGLHEIKLLGKGTSAADAVEVPAPAAVLGGPEPLMQCTAWLNAYFHQPEAIEEFPVPALHHPVFQQESFTRQVLWKLLKVVKFGEVISYQQLAALAGNPKAARAVGGAMRGNPVPILIPCHRVVCSSGAVINYSGGLAVKEWLLAHEGHRLGKPGLGGSSGLAGAWLKGAGATSGSPPAGRN ... 44.0 % of WT

Entry S159I: MGMT polypeptide with mutation S159I (protein) MDKDCEMKRTTLDSPLGKLELSGCEQGLHEIKLLGKGTSAADAVEVPAPAAVLGGPEPLMQCTAWLNAYFHQPEAIEEFPVPALHHPVFQQESFTRQVLWKLLKVVKFGEVISYQQLAALAGNPKAARAVGGAMRGNPVPILIPCHRVVCSSGAVGNYIGGLAVKEWLLAHEGHRLGKPGLGGSSGLAGAWLKGAGATSGSPPAGRN has what MGMT activity (% of WT) DMSO? 102.8 % of WT

Entry N137P: MGMT polypeptide with mutation N137P (protein) MDKDCEMKRTTLDSPLGKLELSGCEQGLHEIKLLGKGTSAADAVEVPAPAAVLGGPEPLMQCTAWLNAYFHQPEAIEEFPVPALHHPVFQQESFTRQVLWKLLKVVKFGEVISYQQLAALAGNPKAARAVGGAMRGPPVPILIPCHRVVCSSGAVGNYSGGLAVKEWLLAHEGHRLGKPGLGGSSGLAGAWLKGAGATSGSPPAGRN has what MGMT activity (% of WT) DMSO? 19.7 % of WT
